The origin of these recorded values is PubChem BioAssay AID1963826.

System: 926638-142-R-J1-PDC complex spheroid viability
Assay: Anticancer human tumor 926638-142-R-J1-PDC patient-derived endometrial carcinoma cell line growth inhibition [POLQ]
Details: second compound 0.316 µM; first compound 1 µM; stronger effect = lower value
Endpoint name: viability, T/C (%)
Your answer should be a plain number; it is taken to be in %.

Q. Report measured viability, T/C on 926638-142-R-J1-PDC complex spheroid viability; entry: CCc1cc2c(N3CCc4c(cc(Cn5ccnc5)cc4-c4cn(C)nc4C(F)(F)F)C3=O)cc(C)nc2c(OC)n1 + Nc1ccc(C#CCN(C(=O)Cc2ncc(C(F)(F)F)cc2C(F)(F)F)c2ccc(F)cc2)nn1
A. 47.8

Q. Write viability, T/C of COc1cc(C2c3cc4c(cc3C(OC3OC5COC(C)OC5C(O)C3O)C3COC(=O)C23)OCO4)cc(OC)c1O (stereo not given) + Nc1ccc(C#CCN(C(=O)Cc2ncc(C(F)(F)F)cc2C(F)(F)F)c2ccc(F)cc2)nn1 ; system used: 926638-142-R-J1-PDC complex spheroid viability
A. 69.4

Q. Lab note: 926638-142-R-J1-PDC complex spheroid viability assay, enter viability, T/C for O=C(c1cc(Cc2n[nH]c(=O)c3ccccc23)ccc1F)N1CCN(C(=O)C2CC2)CC1 + Nc1ccc(C#CCN(C(=O)Cc2ncc(C(F)(F)F)cc2C(F)(F)F)c2ccc(F)cc2)nn1 here
A. 99

Q. Provide 926638-142-R-J1-PDC complex spheroid viability viability, T/C reading for CCCS(=O)(=O)Nc1ccc(F)c(C(=O)c2c[nH]c3ncc(-c4ccc(Cl)cc4)cc23)c1F + Cc1cccc(N(C)C(=O)C2C(O)CCN2c2nc(C)cc(C(F)(F)F)c2C#N)c1 .
A. 97

Q. Lab note: record viability, T/C of COc1cc(C2c3cc4c(cc3C(OC3OC5COC(C)OC5C(O)C3O)C3COC(=O)C23)OCO4)cc(OC)c1O (stereo not given) + COC1C(OC(N)=O)C(O)C(Oc2ccc3c(O)c(NC(=O)c4ccc(O)c(CC=C(C)C)c4)c(=O)oc3c2C)OC1(C)C tested on 926638-142-R-J1-PDC complex spheroid viability.
A. 79.3

====

Test system: 926638-142-R-J1-PDC complex spheroid viability
Experiment: Anticancer human tumor 926638-142-R-J1-PDC cell line growth inhibition [POLQ];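 further: spheroids exposed to drugs for one week before readout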;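 on viability, T/C: percent viability relative to DMSO vehicle control wells set as 100%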
Conditions: second compound 1 µM; first compound 0.1 µM; stronger effect = lower value
Endpoint name: viability, T/C (%)
# output: bare number, implied unit %

Q. Jot down viability, T/C (926638-142-R-J1-PDC complex spheroid viability) of CNCc1ccc(-c2[nH]c3cc(F)cc4c3c2CCNC4=O)cc1 + Cc1cccc(N(C)C(=O)C2C(O)CCN2c2nc(C)cc(C(F)(F)F)c2C#N)c1 .
A. 89.6

Q. # lookup: 926638-142-R-J1-PDC complex spheroid viability viability, T/C, key = CC(C)n1c(=O)n(C)c2cnc3cc(F)c(-c4ccc(OCCCN5CCCCC5)nc4)cc3c21 + COC1C(OC(N)=O)C(O)C(Oc2ccc3c(O)c(NC(=O)c4ccc(O)c(CC=C(C)C)c4)c(=O)oc3c2C)OC1(C)C
A. 104

Q. Return reported viability, T/C for target or system 926638-142-R-J1-PDC complex spheroid viability, item CCc1cc2c(N3CCc4c(cc(Cn5ccnc5)cc4-c4cn(C)nc4C(F)(F)F)C3=O)ccnc2c(OC)n1 + Cc1cccc(N(C)C(=O)C2C(O)CCN2c2nc(C)cc(C(F)(F)F)c2C#N)c1 .
A. 59.4

Q. Please tell me the measured viability, T/C for CCc1cc2c(N3CCc4c(cc(Cn5ccnc5)cc4-c4cn(C)nc4C(F)(F)F)C3=O)ccnc2c(OC)n1 + COC1C(OC(N)=O)C(O)C(Oc2ccc3c(O)c(NC(=O)c4ccc(O)c(CC=C(C)C)c4)c(=O)oc3c2C)OC1(C)C ; system: 926638-142-R-J1-PDC complex spheroid viability.
A. 60.2

Q. Under 926638-142-R-J1-PDC complex spheroid viability, report viability, T/C for Cn1ncnc1[C@H]1c2n[nH]c(=O)c3cc(F)cc(c23)N[C@@H]1c1ccc(F)cc1 + Nc1ccc(C#CCN(C(=O)Cc2ncc(C(F)(F)F)cc2C(F)(F)F)c2ccc(F)cc2)nn1
A. 80.5

====

Kindly state IC50 for each of the entries shown.
System: 926638-142-R-J1-PDC complex spheroid viability
Experiment: Anticancer human tumor 926638-142-R-J1-PDC cell line growth inhibition [POLQ];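 further: spheroids exposed to drugs for one week before readout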
Conditions: curve of first compound; second compound 10 µM
Expressed in nM, but write only the number.

Q. Give the observed IC50 of CCc1cc2c(N3CCc4c(cc(Cn5ccnc5)cc4-c4cn(C)nc4C(F)(F)F)C3=O)ccnc2c(OC)n1 + Nc1ccc(C#CCN(C(=O)Cc2ncc(C(F)(F)F)cc2C(F)(F)F)c2ccc(F)cc2)nn1 for 926638-142-R-J1-PDC complex spheroid viability.
A. 757

Q. Report value: IC50, system: 926638-142-R-J1-PDC complex spheroid viability, molecule: COc1cccc2c1C(=O)c1c(O)c3c(c(O)c1C2=O)CC(O)(C(=O)CO)CC3OC1CC(N)C(O)C(C)O1 (stereo not drawn) + Cc1cccc(N(C)C(=O)C2C(O)CCN2c2nc(C)cc(C(F)(F)F)c2C#N)c1
A. 124

====

Tested on: 926638-142-R-J1-PDC complex spheroid viability
Test: Anticancer human tumor 926638-142-R-J1-PDC cell line growth inhibition [POLQ];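 further: spheroids exposed to drugs for one week before readout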
Conditions: curve of first compound; second compound 1 µM
pIC50: −log10 of the molar value.
# if value of pIC50 reaches 6, tag met; if it stays below, tag not met

Q. Form field: pIC50 at least 6? Entry: O=c1[nH]cc(F)c(=O)[nH]1 + COC1C(OC(N)=O)C(O)C(Oc2ccc3c(O)c(NC(=O)c4ccc(O)c(CC=C(C)C)c4)c(=O)oc3c2C)OC1(C)C
A. not met

Q. Is pIC50 for CC1COCCN1c1cc(C2(S(C)(=N)=O)CC2)nc(-c2ccnc3[nH]ccc23)n1 (stereo not given) + Cc1cccc(N(C)C(=O)C2C(O)CCN2c2nc(C)cc(C(F)(F)F)c2C#N)c1 at or above 6?
A. not met

Q. Does the reported pIC50 for CCc1c2c(nc3ccc(O)cc13)-c1cc3c(c(=O)n1C2)COC(=O)[C@]3(O)CC + Cc1cccc(N(C)C(=O)C2C(O)CCN2c2nc(C)cc(C(F)(F)F)c2C#N)c1 fall at or above the 6 mark?
A. met

Q. Does the reported pIC50 for O=C(c1cc(Cc2n[nH]c(=O)c3ccccc23)ccc1F)N1CCN(C(=O)C2CC2)CC1 + Nc1ccc(C#CCN(C(=O)Cc2ncc(C(F)(F)F)cc2C(F)(F)F)c2ccc(F)cc2)nn1 fall at or above the 6 mark?
A. not met

Q. Check if pIC50 >= 6 (inclusive). Item: CCCS(=O)(=O)Nc1ccc(F)c(C(=O)c2c[nH]c3ncc(-c4ccc(Cl)cc4)cc23)c1F + Nc1ccc(C#CCN(C(=O)Cc2ncc(C(F)(F)F)cc2C(F)(F)F)c2ccc(F)cc2)nn1
A. not met

Q. Identify whether the reported pIC50 of the following compound is 6 or greater: CCCS(=O)(=O)Nc1ccc(F)c(C(=O)c2c[nH]c3ncc(-c4ccc(Cl)cc4)cc23)c1F + Cc1cccc(N(C)C(=O)C2C(O)CCN2c2nc(C)cc(C(F)(F)F)c2C#N)c1
A. not met

Q. Given C=CC(=O)N1CCN(c2nc(=O)n(-c3c(C)ccnc3C(C)C)c3nc(-c4c(O)cccc4F)c(F)cc23)C(C)C1 (stereo not given) + COC1C(OC(N)=O)C(O)C(Oc2ccc3c(O)c(NC(=O)c4ccc(O)c(CC=C(C)C)c4)c(=O)oc3c2C)OC1(C)C , state whether its pIC50 is at least 6.
A. not met

Q. Determine whether this compound has pIC50 no lower than 6: CCc1cc2c(N3CCc4c(cc(Cn5ccnc5)cc4-c4cn(C)nc4C(F)(F)F)C3=O)ccnc2c(OC)n1 + COC1C(OC(N)=O)C(O)C(Oc2ccc3c(O)c(NC(=O)c4ccc(O)c(CC=C(C)C)c4)c(=O)oc3c2C)OC1(C)C
A. met

Q. Is it the case that CC(C)n1c(=O)n(C)c2cnc3cc(F)c(-c4ccc(OCCCN5CCCCC5)nc4)cc3c21 + Cc1cccc(N(C)C(=O)C2C(O)CCN2c2nc(C)cc(C(F)(F)F)c2C#N)c1 has pIC50 reaching or exceeding 6?
A. not met

Q. State whether the measured pIC50 reaches 6, counting equality as reaching it, for CCc1cc2c(N3CCc4c(cc(Cn5ccnc5)cc4-c4cn(C)nc4C(F)(F)F)C3=O)ccnc2c(OC)n1 + Cc1cccc(N(C)C(=O)C2C(O)CCN2c2nc(C)cc(C(F)(F)F)c2C#N)c1
A. met

Q. Is pIC50 for O=c1[nH]cc(F)c(=O)[nH]1 + Cc1cccc(N(C)C(=O)C2C(O)CCN2c2nc(C)cc(C(F)(F)F)c2C#N)c1 at or above 6?
A. not met

Q. Check the entry O=C(c1cc(Cc2n[nH]c(=O)c3ccccc23)ccc1F)N1CCN(C(=O)C2CC2)CC1 + Cc1cccc(N(C)C(=O)C2C(O)CCN2c2nc(C)cc(C(F)(F)F)c2C#N)c1 : does pIC50 equal or exceed 6?
A. not met

Q. Does CC1COCCN1c1cc(C2(S(C)(=N)=O)CC2)nc(-c2ccnc3[nH]ccc23)n1 (stereo not given) + Nc1ccc(C#CCN(C(=O)Cc2ncc(C(F)(F)F)cc2C(F)(F)F)c2ccc(F)cc2)nn1 have a reported pIC50 of at least 6?
A. not met

Q. Is the recorded value of pIC50 equal to or greater than 6 for this compound? COc1cccc2c1C(=O)c1c(O)c3c(c(O)c1C2=O)CC(O)(C(=O)CO)CC3OC1CC(N)C(O)C(C)O1 (stereo not given) + Cc1cccc(N(C)C(=O)C2C(O)CCN2c2nc(C)cc(C(F)(F)F)c2C#N)c1
A. met

Q. Textbook exercise: given the entry CC1COCCN1c1cc(-c2ccnn2C)c2ccnc(-c3ccn[nH]3)c2n1 (stereo not given) + COC1C(OC(N)=O)C(O)C(Oc2ccc3c(O)c(NC(=O)c4ccc(O)c(CC=C(C)C)c4)c(=O)oc3c2C)OC1(C)C , state whether its pIC50 is greater than or equal to 6.
A. met

Q. Item CCc1cc2c(N3CCc4c(cc(Cn5ccnc5)cc4-c4cn(C)nc4C(F)(F)F)C3=O)cc(C)nc2c(OC)n1 + Cc1cccc(N(C)C(=O)C2C(O)CCN2c2nc(C)cc(C(F)(F)F)c2C#N)c1 with pIC50 of 6 or above?
A. met

Q. Hi, just wondering whether C=CCn1c(=O)c2cnc(Nc3ccc(N4CCN(C)CC4)cc3)nc2n1-c1cccc(C(C)(C)O)n1 + COC1C(OC(N)=O)C(O)C(Oc2ccc3c(O)c(NC(=O)c4ccc(O)c(CC=C(C)C)c4)c(=O)oc3c2C)OC1(C)C shows pIC50 of 6 or higher.
A. met

Q. Please indicate if the recorded pIC50 for C#Cc1c(F)ccc2cc(O)cc(-c3ncc4c(N5CC6CCC(C5)N6)nc(OCC56CCCN5CC(F)C6)nc4c3F)c12 (stereo not given) + COC1C(OC(N)=O)C(O)C(Oc2ccc3c(O)c(NC(=O)c4ccc(O)c(CC=C(C)C)c4)c(=O)oc3c2C)OC1(C)C meets or exceeds 6.
A. not met

Q. Does the reported pIC50 for COc1cccc2c1C(=O)c1c(O)c3c(c(O)c1C2=O)CC(O)(C(=O)CO)CC3OC1CC(N)C(O)C(C)O1 (stereo not given) + Nc1ccc(C#CCN(C(=O)Cc2ncc(C(F)(F)F)cc2C(F)(F)F)c2ccc(F)cc2)nn1 fall at or above the 6 mark?
A. met
